Provenance of the data: patent US20220162261A1

Target: T1, α4β1 (R&D Systems #5668-A4) (UniProt P13612 34-970; P05556 21-728, limits assumed)
T1 construct: bought; also called soluble α4β1
Assay: competition ELISA vs VCAM-1
Bridge positions count the residues as written; N and C are the ends. Square brackets hold non-standard residues; d marks the D form. Ends that are not written are not given here. Phe(4-tBu) = CC(C)(C)c1ccc(C[C@H](N)C(=O)O)cc1; NMeR = CN[C@@H](CCCNC(=N)N)C(=O)O; β3hE = N[C@@H](CCC(=O)O)CC(=O)O; NMeK = CN[C@@H](CCCCN)C(=O)O; Pen = CC(C)(S)[C@H](N)C(=O)O; βAla = NCCC(=O)O
attributeMeasured: IC50

INSERT INTO results (binder, endpointvalue) VALUES
  ('Ac-[Pen][NMeR]SDTL[Pen][Phe(4-tBu)][β3hE]-OH (disulfide 1-7; SMILES CC(=O)N[C@@H]1C(=O)N(C)[C@@H](CCCNC(=N)N)C(=O)N[C@@H](CO)C(=O)N[C@@H](CC(=O)O)C(=O)N[C@@H]([C@@H](C)O)C(=O)N[C@@H](CC(C)C)C(=O)N[C@H](C(=O)N[C@@H](Cc2ccc(C(C)(C)C)cc2)C(=O)N[C@@H](CCC(=O)O)CC(=O)O)C(C)(C)SSC1(C)C) [SEQ ID NO: 152]', '> 100 nM'),
  ('XRSDTLXWE (Ac Pen N-Me-R S D T L Pen W b-H-E OH; disulfide Pen-Pen) [SEQ ID NO: 146]', '> 1000 nM'),
  ('Ac-[Pen][NMeR]SDTL[Pen]WE[dK]-OH (disulfide 1-7; not fully specified (residue 10); printed as (Ac Pen N-Me-R S D T L Pen W E k OH)2 DIG, disulfide Pen-Pen; also: homodimer: two subunits linked by DIG via D-Lys10 side chain) [SEQ ID NO: 78]', '> 100 nM'),
  ('Ac-[Pen][NMeR]SDTL[Pen]WE[dK]-NH2 (disulfide 1-7; not fully specified (residue 10); printed as (Ac Pen N-Me-R S D T L Pen W E k NH2)2 DIG, disulfide Pen-Pen; also: homodimer via DIG linker, also called Peptide Z) [SEQ ID NO: 67]', '> 100 nM'),
  ('Ac-[Pen][NMeR]SDTL[Pen][Phe(4-tBu)][β3hE][NMeK]-NH2 (disulfide 1-7; not fully specified (residue 10); printed as (Ac Pen N-Me-R S D T L Pen F(4-tBu) b-H-E N-Me-K NH2)2 DIG, disulfide Pen-Pen; also: homodimer (…)2 DIG via Lys10 NZ) [SEQ ID NO: 149]', '> 500 nM'),
  ('Ac-[Pen][NMeR]SDTL[Pen]YE[dK]-NH2 (disulfide 1-7; not fully specified (residue 10); printed as (Ac Pen N-Me-R S D T L Pen Y E k NH2)2 DIG, disulfide Pen-Pen; also: dimer, two subunits joined by DIG linker) [SEQ ID NO: 22]', '> 100 nM');

Request: # return recorded IC50 for entry [βAla][Pen][NMeR]SDTL[Pen]WE-NH2 (disulfide 2-8; not fully specified (N-terminus); printed as DIG (NH2 Beta-Ala Pen N-Me-R S D T L Pen W E NH2)2, disulfide Pen-Pen; also: homodimer: two subunits linked by DIG via N-terminal Beta-Ala amine, linker printed at the N-terminus) [SEQ ID NO: 54]
Result: > 100 nM
